# system: UniProtKB P50579
# assay method text: MetAP2 enzyme assay
# Assay type: biochemical
# condition label: Co2+ as metal ion; Table 1; read-out: hMetAP2 CO^2+ IC50
endpoint: pIC50
Scale for pIC50: -log10 of concentration given in mol/L; no unit attached.

Per the record, Oc1c(C(c2ccccc2)N2CCOCC2)cc(Cl)c2cccnc12 (centres unmarked) has pIC50 of 5.10

* * *

# Tested on: HUVEC
# assay method text: HUVEC inhibition (selectivity)
# Assay type: cell-based, human
# condition label: Table 1
endpoint: IC50 (µM)
Write the answer as a number in µM, unit excluded.

# IC50 of `CN1CCN(Cc2cc(Cl)c3cccnc3c2O)CC1` = 9.6

* * *

# system: UniProtKB P50579
# assay method text: MetAP2 enzyme assay
# Assay type: biochemical
endpoint: IC50

Value of measured IC50 for the entry OCCOc1ccc(Cl)c2cccnc12 [Entry 3b] : > 50 µM

* * *

# system: hMetAP2 (Homo sapiens)
# assay method text: MetAP2 enzyme assay
# Format: biochemical
# condition label: Mn2+ as metal ion; Table 1; read-out: hMetAP2 Mn^2+ IC50
endpoint: IC50 (µM)
Record the value in µM, omitting the unit from your answer.

# example entries with known answers
1. Oc1c(C(c2ccccc2)N2CCOCC2)cc(Cl)c2cccnc12 (stereo not drawn) [Entry 2f]
0.33
2. OCCN(CCO)Cc1cc(Cl)c2cccnc2c1O [Entry 2a]
28

Alright, here's another molecule for you.
The value of IC50 measured for the molecule Oc1c(CN2CCOCC2)ccc2cccnc12 [Entry 2c] turned out to be 15.2

* * *

# system: UniProt:P50579
# assay method text: MetAP2 enzyme assay
# Assay type: biochemical
# condition label: Co2+ as metal ion; Table 2; read-out: hMetAP2 Co^2+ IC50
Overview of reported IC50 across a group of compounds:

Record excerpt, results attached:
1. O=C(Nc1cc(Cl)ccc1Cl)Oc1c(Cl)cc(Cl)c2cccnc12
> 50 µM
2. O=C(Nc1cc(Cl)c(Cl)cc1Cl)Oc1c(Cl)cc(Cl)c2cccnc12
> 50 µM

Here is another compound to look at.
Memo: `O=C(Nc1cc(Cl)ccc1Cl)Oc1ccc(Cl)c2cccnc12` , reported IC50: 2.2 µM

* * *

The reader will find reported IC50 values listed item by item below.
# system: hMetAP1 (Homo sapiens, UniProt P53582)
# assay method text: MetAP1 enzyme assay
# Format: biochemical
# condition label: Co2+ as metal ion; Table 2; read-out: hMetAP1 Co^2+ IC50

Query O=C(Nc1cc(Cl)c(Cl)cc1Cl)Oc1c(Cl)cc(Cl)c2cccnc12 [Entry 4a] yields IC50 of > 50 µM

IC50 measured on O=C(Nc1cc(Cl)ccc1Cl)Oc1ccc(Cl)c2cccnc12 [Entry 4c] = > 50 µM

Looking up O=C(Nc1cc(Cl)ccc1Cl)Oc1c(Cl)cc(Cl)c2cccnc12 [Entry 4b] , I found its IC50 recorded as > 50 µM

* * *

# system: hMetAP2 (Homo sapiens, UniProt P50579)
# Sequence (P50579 whole entry): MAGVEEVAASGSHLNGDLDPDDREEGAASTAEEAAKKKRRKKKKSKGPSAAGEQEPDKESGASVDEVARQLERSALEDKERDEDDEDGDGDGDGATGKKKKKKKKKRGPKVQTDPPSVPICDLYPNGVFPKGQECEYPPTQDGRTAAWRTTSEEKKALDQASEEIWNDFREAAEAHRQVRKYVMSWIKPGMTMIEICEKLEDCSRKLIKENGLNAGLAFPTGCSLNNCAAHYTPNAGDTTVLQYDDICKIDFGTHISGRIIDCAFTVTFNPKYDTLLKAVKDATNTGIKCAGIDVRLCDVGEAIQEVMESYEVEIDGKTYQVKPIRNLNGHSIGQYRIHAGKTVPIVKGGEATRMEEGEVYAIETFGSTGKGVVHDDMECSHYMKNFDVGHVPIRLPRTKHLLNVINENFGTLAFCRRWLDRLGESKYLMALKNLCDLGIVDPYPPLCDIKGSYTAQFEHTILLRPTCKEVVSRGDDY
# assay method text: MetAP2 enzyme assay
# Format: biochemical
# condition label: Mn2+ as metal ion; Table 2; read-out: hMetAP2 Mn^2+ IC50
endpoint: pIC50
// pIC50 here means minus log10 of the molar concentration (mol/L)

Examples with their reported pIC50 follow.
1. O=C(Nc1cc(Cl)ccc1Cl)Oc1c(Cl)cc(Cl)c2cccnc12
6.05
2. O=C(Nc1cc(Cl)c(Cl)cc1Cl)Oc1c(Cl)cc(Cl)c2cccnc12
5.59

Query compound follows.
The value of pIC50 measured for the compound `O=C(Nc1cc(Cl)ccc1Cl)Oc1ccc(Cl)c2cccnc12` turned out to be 7.15

* * *

# system: hMetAP1 (Homo sapiens)
# assay method text: MetAP1 enzyme assay
# Assay type: biochemical
# condition label: Mn2+ as metal ion; Table 2; read-out: hMetAP1 Mn^2+ IC50
pIC50: −log10 of the molar value.
Each entry below lists one item and its recorded pIC50 value.

// worked examples, pIC50 included
1. O=C(Nc1cc(Cl)ccc1Cl)Oc1c(Cl)cc(Cl)c2cccnc12
< 4.30
2. O=C(Nc1cc(Cl)c(Cl)cc1Cl)Oc1c(Cl)cc(Cl)c2cccnc12
< 4.30

Okay, next one:
For `O=C(Nc1cc(Cl)ccc1Cl)Oc1ccc(Cl)c2cccnc12` the compound record lists pIC50 as 4.90

Sourced from patent US20130210821A1
